Biological target: rat M1 wild-type receptors (Rattus norvegicus, UniProt P08482)
Construct: expressed in transfected cells
Sequence (P08482 whole entry): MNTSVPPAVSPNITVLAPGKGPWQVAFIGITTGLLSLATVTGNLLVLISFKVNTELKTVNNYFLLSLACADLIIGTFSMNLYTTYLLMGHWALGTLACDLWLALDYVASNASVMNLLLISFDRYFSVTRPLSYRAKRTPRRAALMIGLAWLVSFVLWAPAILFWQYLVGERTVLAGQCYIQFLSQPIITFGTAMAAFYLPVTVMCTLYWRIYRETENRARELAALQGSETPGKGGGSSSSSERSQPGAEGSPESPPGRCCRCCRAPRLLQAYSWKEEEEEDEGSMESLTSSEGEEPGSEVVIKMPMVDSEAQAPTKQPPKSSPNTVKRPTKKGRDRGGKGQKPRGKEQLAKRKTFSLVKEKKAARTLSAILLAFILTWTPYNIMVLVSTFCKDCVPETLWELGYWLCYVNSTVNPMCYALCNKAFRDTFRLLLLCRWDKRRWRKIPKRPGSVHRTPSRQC
Assay: R-SAT functional assay, wild-type receptor
Assay type: cell-based
Details: pEC50, Table 4; M1 wild type
Quantity measured: EC50 (nM)
Please state the figure in nM; there is no need to write the unit.

Ask: Requested read-out: EC50. Entry: O=C1CCCN1CC#CCN1CCCC1 [Oxotremorine]
Result: 79.4

* * *

Measured % Eff, listed per entry for reference.
Target: rat M1 W101A receptor (Rattus norvegicus, UniProt P08482, W101A)
Construct: expressed in transfected cells
Sequence (P08482 whole entry W101A): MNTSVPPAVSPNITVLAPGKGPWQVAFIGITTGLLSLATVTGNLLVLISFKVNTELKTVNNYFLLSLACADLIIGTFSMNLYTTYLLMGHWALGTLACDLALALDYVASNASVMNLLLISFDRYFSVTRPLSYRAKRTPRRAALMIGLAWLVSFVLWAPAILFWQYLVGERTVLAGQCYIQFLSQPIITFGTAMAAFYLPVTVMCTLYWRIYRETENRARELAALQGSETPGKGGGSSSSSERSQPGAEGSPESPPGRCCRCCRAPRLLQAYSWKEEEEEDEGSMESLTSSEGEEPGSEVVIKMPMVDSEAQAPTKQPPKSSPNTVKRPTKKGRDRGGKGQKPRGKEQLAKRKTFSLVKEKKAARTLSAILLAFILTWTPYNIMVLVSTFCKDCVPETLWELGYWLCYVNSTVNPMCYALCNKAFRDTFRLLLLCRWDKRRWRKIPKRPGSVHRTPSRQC
Assay: R-SAT functional assay, W101A mutant
Format: cell-based
Conditions: Table 10; M1 W101A; maximum response relative to AC-42
Please state the figure in %; there is no need to write the unit.

# example entries with known answers
O=C1CCCN1CC#CCN1CCCC1 = 120
CCCCC1CCN(CCCC(=O)c2ccccc2C)CC1 = 111

Ask: # query: % Eff | item CCCCC1CCN(CCCN2C(=O)COc3cc(F)ccc32)CC1 | system: rat M1 W101A receptor (Rattus norvegicus, UniProt P08482, W101A)
Result: 140

Ask: Could you do the same for Clc1ccc2c(c1)N=C(N1CCNCC1)c1ccccc1N2 , please?
Result: 93
